- TESTED ON: recombinant human SGK-1 enzyme (Homo sapiens, UniProt O00141)
- Sequence (O00141 whole entry, looked up): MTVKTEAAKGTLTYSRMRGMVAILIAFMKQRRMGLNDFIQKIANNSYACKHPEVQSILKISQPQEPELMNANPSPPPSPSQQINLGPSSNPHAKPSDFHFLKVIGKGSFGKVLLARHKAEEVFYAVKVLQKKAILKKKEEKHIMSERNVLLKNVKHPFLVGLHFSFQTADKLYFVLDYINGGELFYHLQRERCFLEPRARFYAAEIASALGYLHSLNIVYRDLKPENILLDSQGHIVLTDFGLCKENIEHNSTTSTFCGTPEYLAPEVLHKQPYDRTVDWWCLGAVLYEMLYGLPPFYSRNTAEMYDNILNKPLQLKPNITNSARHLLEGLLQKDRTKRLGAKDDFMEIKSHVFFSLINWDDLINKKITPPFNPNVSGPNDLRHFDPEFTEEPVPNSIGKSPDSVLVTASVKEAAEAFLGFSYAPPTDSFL
- MEASUREMENT NOTES: Enzymatic activity assay: SGK-1 substrate peptide phosphorylation (Caliper lab-chip mobility shift)
- Type: biochemical
- ASSAY SETUP: peptide substrate 1 μM, ATP 10 μM, 60 min at 37° C., read-out: IC50 values for inhibition of SGK-1 enzymatic activity
IC50 for assorted compounds

COMPOUND: CC(C)COc1nc(-c2ccc(NS(=O)(=O)c3ccc(F)cc3Cl)cc2)nc2[nH]nc(N)c12
U: nM
RELATION SIGN: =
IC50: 950
--
COMPOUND: Cc1ccc(C#N)c(S(=O)(=O)Nc2ccc(-c3nc(OCCCN)c4c(C)n[nH]c4n3)cc2)c1
U: nM
RELATION SIGN: =
IC50: 6.4
--
COMPOUND: Cc1n[nH]c2nc(-c3ccc(NS(=O)(=O)c4cc(F)ccc4F)cc3)nc(OC3CCN(C(C)C)CC3)c12
U: nM
RELATION SIGN: =
IC50: 8.4
--
COMPOUND: O=S(=O)(Nc1ccc(-c2nc(OC3CNC3)c3cn[nH]c3n2)cc1)c1cc(Cl)ccc1Cl
U: nM
RELATION SIGN: =
IC50: 4.7
--
COMPOUND: Cc1ccc(C#N)c(S(=O)(=O)Nc2ccc(-c3nc(OCC4CNCCO4)c4cn[nH]c4n3)cc2)c1 (stereo not drawn)
U: nM
RELATION SIGN: =
IC50: 7.9
--
COMPOUND: CC(C)(O)CCCOc1nc(-c2ccc(NS(=O)(=O)c3cc(Cl)ccc3F)cc2)nc2[nH]ncc12
U: nM
RELATION SIGN: =
IC50: 11
--
COMPOUND: Cc1n[nH]c2nc(-c3ccc(NS(=O)(=O)c4cc(C#N)ccc4F)cc3)nc(OC3CCC(O)CC3)c12 (stereo not drawn)
U: nM
RELATION SIGN: =
IC50: 2.7
--
COMPOUND: Cc1ccc(C#N)c(S(=O)(=O)Nc2ccc(-c3nc(OC4CCN(C)CC4)c4cn[nH]c4n3)cc2)c1
U: nM
RELATION SIGN: =
IC50: 4.5
--
COMPOUND: Cc1n[nH]c2nc(-c3ccc(NS(=O)(=O)c4cc(Cl)ccc4F)cc3)ncc12
U: nM
RELATION SIGN: <
IC50: 1.2
--
COMPOUND: Cc1ccc(F)c(S(=O)(=O)Nc2ccc(-c3nc(OCCC(N)=O)c4cn[nH]c4n3)cc2)c1
U: nM
RELATION SIGN: <
IC50: 1.5
--
COMPOUND: Cc1n[nH]c2nc(-c3ccc(NS(=O)(=O)c4ccccc4F)cc3)nc(OCC(CO)CO)c12
U: nM
RELATION SIGN: =
IC50: 110
--
COMPOUND: Nc1n[nH]c2cc(-c3ccc(NS(=O)(=O)c4cc(Cl)ccc4Cl)cc3)ncc12
U: nM
RELATION SIGN: =
IC50: 1.7
--
COMPOUND: Cc1n[nH]c2nc(-c3ccc(NS(=O)(=O)c4cc(Cl)ccc4Cl)cc3)nc(OCCCN)c12
U: nM
RELATION SIGN: <
IC50: 1.5
--
COMPOUND: N#Cc1ccc(Cl)cc1S(=O)(=O)Nc1ccc(-c2nc(OCC(F)(F)F)c3c(N)n[nH]c3n2)cc1
U: nM
RELATION SIGN: =
IC50: 4.6
--
COMPOUND: COc1ccc(F)c(S(=O)(=O)Nc2ccc(-c3nc(OC4CCC(O)CC4)c4c(C)n[nH]c4n3)cc2)c1 (stereo not drawn)
U: nM
RELATION SIGN: <
IC50: 1.5
--
COMPOUND: CCOc1nc(-c2ccc(NS(=O)(=O)c3cc(Cl)ccc3Cl)cc2)nc2[nH]nc(C)c12
U: nM
RELATION SIGN: =
IC50: 11
--
COMPOUND: CCOc1nc(-c2ccc(NS(=O)(=O)c3cc(F)c(F)cc3F)cc2)cc2[nH]nc(N)c12
U: nM
RELATION SIGN: =
IC50: 19
--
COMPOUND: COc1ccc(F)c(S(=O)(=O)Nc2ccc(-c3nc(OC4CCC(O)CC4)c4cn[nH]c4n3)cc2)c1 (stereo not drawn)
U: nM
RELATION SIGN: <
IC50: 1.5
--
COMPOUND: Cc1ccc(C#N)c(S(=O)(=O)Nc2ccc(-c3nc(NC4CCC(O)CC4)c4c(C)n[nH]c4n3)cc2)c1 (stereo not drawn)
U: nM
RELATION SIGN: =
IC50: 1.7
--
COMPOUND: Cc1nc(-c2ccc(NS(=O)(=O)C3=C(Cl)SCC(Cl)=C3)cc2)nc2[nH]nc(N)c12
U: nM
RELATION SIGN: =
IC50: 19
--
COMPOUND: Cc1ccc(F)c(S(=O)(=O)Nc2ccc(-c3ncc4c(N)n[nH]c4n3)cc2)c1
U: nM
RELATION SIGN: <
IC50: 1.5
--
COMPOUND: Cc1nc(-c2ccc(NS(=O)(=O)c3cccc(C#N)c3)cc2)nc2[nH]nc(N)c12
U: nM
RELATION SIGN: =
IC50: 97
--
COMPOUND: Nc1n[nH]c2nc(-c3ccc(NS(=O)(=O)c4cc5c(cc4Br)OCCCO5)cc3)ncc12
U: nM
RELATION SIGN: =
IC50: 6.7
--
COMPOUND: O=S(=O)(Nc1ccc(-c2nc(OC3CCC(O)C3)c3cn[nH]c3n2)cc1)c1cc(Cl)ccc1Cl (stereo not drawn)
U: nM
RELATION SIGN: =
IC50: 4
--
COMPOUND: Cc1ccc(F)c(S(=O)(=O)Nc2ccc(-c3nc(OCCCC(N)=O)c4cn[nH]c4n3)cc2)c1
U: nM
RELATION SIGN: =
IC50: 3.3
--
COMPOUND: CC(C)(CO)COc1nc(-c2ccc(NS(=O)(=O)c3cc(Cl)ccc3F)cc2)nc2[nH]ncc12
U: nM
RELATION SIGN: =
IC50: 8.3
--
COMPOUND: Cc1nc(-c2ccc(NS(=O)(=O)c3cc(Cl)ccc3C#N)cc2)nc2[nH]ncc12
U: nM
RELATION SIGN: =
IC50: 3.8
--
COMPOUND: Nc1n[nH]c2nc(-c3ccc(NS(=O)(=O)c4cc(Cl)ccc4Cl)cc3)ncc12
U: nM
RELATION SIGN: =
IC50: 2
--
COMPOUND: COCCCN1CCC(Oc2nc(-c3ccc(NS(=O)(=O)c4cc(F)ccc4F)cc3)nc3[nH]nc(C)c23)CC1
U: nM
RELATION SIGN: =
IC50: 8.2
--
COMPOUND: CC(C)COc1nc(-c2ccc(NS(=O)(=O)c3cc(Cl)ccc3Cl)cc2)nc2[nH]nc(N)c12
U: nM
RELATION SIGN: =
IC50: 130

* * *

- TESTED ON: recombinant human SGK-1 enzyme (Homo sapiens, UniProt O00141)
- MEASUREMENT NOTES: Enzymatic activity assay: SGK-1 substrate peptide phosphorylation (Caliper lab-chip mobility shift)
- Assay type: biochemical
- ASSAY SETUP: peptide substrate 1 μM, ATP 10 μM, 60 min at 37° C., read-out: IC50 values for inhibition of SGK-1 enzymatic activity
pIC50: −log10 of the molar value.
READOUT KIND: pIC50

COMPOUND: O=S(=O)(Nc1ccc(-c2nc(N3CCC(O)C3)c3cn[nH]c3n2)cc1F)c1cc(Cl)ccc1Cl (stereo not shown) [Example 438]
TESTED ON: recombinant human SGK-1 enzyme (Homo sapiens, UniProt O00141)
RELATION SIGN: =
TEST RESULT: 7.07

COMPOUND: O=S(=O)(Nc1ccc(-c2nc(O[C@@H]3CCCC[C@@H]3O)c3cn[nH]c3n2)cc1)c1cc(Cl)ccc1F (racemic) [Example 81]
TESTED ON: recombinant human SGK-1 enzyme (Homo sapiens, UniProt O00141)
RELATION SIGN: =
TEST RESULT: 7.96

COMPOUND: Cc1nc(-c2ccc(NS(=O)(=O)c3ccccc3F)cc2)nc2[nH]nc(N)c12 [Example 169]
TESTED ON: recombinant human SGK-1 enzyme (Homo sapiens, UniProt O00141)
RELATION SIGN: =
TEST RESULT: 6.96

COMPOUND: O=S(=O)(Nc1ccc(-c2nc(Oc3cccnc3)c3cn[nH]c3n2)cc1)c1cc(Cl)ccc1Cl [Example 27]
TESTED ON: recombinant human SGK-1 enzyme (Homo sapiens, UniProt O00141)
RELATION SIGN: >
TEST RESULT: 8.92

COMPOUND: COc1ccc(Cl)c(S(=O)(=O)Nc2ccc(-c3ncc4c(N)n[nH]c4n3)cc2)c1 [Example 461]
TESTED ON: recombinant human SGK-1 enzyme (Homo sapiens, UniProt O00141)
RELATION SIGN: >
TEST RESULT: 8.82

COMPOUND: COc1ccc(F)c(S(=O)(=O)Nc2ccc(-c3nc(OCC(C)C)c4c(N)n[nH]c4n3)cc2)c1 [Example 326]
TESTED ON: recombinant human SGK-1 enzyme (Homo sapiens, UniProt O00141)
RELATION SIGN: =
TEST RESULT: 8.04

COMPOUND: Cc1n[nH]c2nc(-c3ccc(NS(=O)(=O)c4cc(F)ccc4F)cc3)nc(OCC3CNCCO3)c12 (stereo not shown) [Example 292]
TESTED ON: recombinant human SGK-1 enzyme (Homo sapiens, UniProt O00141)
RELATION SIGN: =
TEST RESULT: 7.85
